Reference source for all entries: paper PMC3220529

target: acrylodan-labeled A10A2 hybrid protein (rabbit | not stated); assay: other fluorescence titration
pKd: −log10 of the molar value.
Measured endpoint: pKd

Binder: Ac-GKVTFPKMKIPKFTFSGREL-NH2 [AHNAK5 peptide (AHNAK residues Gly5654-Leu5673)]
Measured endpoint: pKd
Observed value: 7.46
